# Species: Rattus norvegicus
# methodNotes: Open TG-GATES - Regimen: Daily Repeat
# Type: toxicity, organism-based, Sprague-Dawley
# Design: regimen Daily Repeat, gender Male, age 6 weeks
# studyConditions: in vivo, po, 300 mg/kg, […], tissue Plasma, route gavage, dose level Middle, time 14 day
readoutName: LDH (IU/L)
Give bare numbers, in IU/L.

The cases that follow already have their LDH on record.
In [3]: df
Out[3]:
                                   compound  unitofmeasurement  quantitativeresult
0  CCCCNC(=O)NS(=O)(=O)c1ccc(C)cc1 [TOLBUTAMIDE]               IU/L                55.4
1  CC(S)C(=O)NCC(=O)O (centres undefined) [TIOPRONIN]               IU/L               143.4
2  CC(=O)[C@@]1(O)CC[C@H]2[C@@H]3C=C(Cl)C4=CC(=O)CC[C@]4(C)[C@H]3CC[C@@]21C [CHLORMADINONE]               IU/L               161.4

Pending compound:
INPUT: Request the reported LDH associated with O=C(O)c1ccccc1Nc1ccccc1 [FENAMIC ACID]
OUTPUT: 102.2
